In this section we review reported relative viability values for a set of compounds.
Tested on: HCC-78
PROTOCOL DESCRIPTION: relative viability (nuclei count vs DMSO), 5 days (fraction); higher = more cells survive
TEST PARAMETERS: first compound 0.1265 µM

{"columns": ["COMPOUND", "relative viability"],
 "data": [
  ["C[C@@H]1CN(CC(=O)Nc2ccc3c(c2)Cc2cccc(-c4cc(=O)cc(N5CCOCC5)o4)c2S3)C[C@H](C)O1 + CS(=O)(=O)N1CCN(Cc2cc3nc(-c4cccc5[nH]ncc45)nc(N4CCOCC4)c3s2)CC1 [Pictilisib] (partner 1 µM)", 0.2],
  ["C[C@@H]1CN(CC(=O)Nc2ccc3c(c2)Cc2cccc(-c4cc(=O)cc(N5CCOCC5)o4)c2S3)C[C@H](C)O1 + Nc1ncn([C@H]2C[C@H](O)[C@@H](CO)O2)c(=O)n1 [Decitabine] (partner 2 µM)", 0.676],
  ["Clc1ccc(Nc2nnc(Cc3ccncc3)c3ccccc23)cc1 [Vatalanib] + Nc1ncn([C@H]2C[C@H](O)[C@@H](CO)O2)c(=O)n1 [Decitabine] (partner 2 µM)", 0.723]
]}

Query: # query: relative viability of entry COc1cc(N2CCC(C(N)=O)CC2)ccc1Nc1nc(N)c(Cl)c(Nc2ccccc2S(=O)(=O)C(C)C)n1 [HG-5-88-01] + COc1cc2c(Oc3ccc(NC(=O)C4(C(=O)Nc5ccc(F)cc5)CC4)cc3F)ccnc2cc1OCCCN1CCOCC1 [Foretinib] (partner 0.25 µM)
Reply: 0.533

Query: Moving on to the next compound: C[C@@H]1CN(CC(=O)Nc2ccc3c(c2)Cc2cccc(-c4cc(=O)cc(N5CCOCC5)o4)c2S3)C[C@H](C)O1 + O=C(CCCCCCC(=O)Nc1ccccc1)NO [Vorinostat] (partner 1 µM)
Reply: 0.417

Query: Now the compound COc1cc(N2CCC(C(N)=O)CC2)ccc1Nc1nc(N)c(Cl)c(Nc2ccccc2S(=O)(=O)C(C)C)n1 [HG-5-88-01] + CC(=O)c1c(C)c2cnc(Nc3ccc(N4CCNCC4)cn3)nc2n(C2CCCC2)c1=O [Palbociclib] (partner 0.5 µM)
Reply: 0.424

* * *

Tested on: NCI-H1703
PROTOCOL DESCRIPTION: relative viability (nuclei count vs DMSO), 5 days (fraction); higher = more cells survive
TEST PARAMETERS: first compound 1.265 µM
Measured relative viability, listed per entry for reference.
The answer should be written as a number, with no unit following it.

Known results for compounds:
{"columns": ["COMPOUND", "relative viability"],
 "data": [
  ["Clc1ccc(Nc2nnc(Cc3ccncc3)c3ccccc23)cc1 [Vatalanib] + CS(=O)(=O)N1CCN(Cc2cc3nc(-c4cccc5[nH]ncc45)nc(N4CCOCC4)c3s2)CC1 [Pictilisib] (partner 1 µM)", 0.209],
  ["COc1cc(N2CCC(C(N)=O)CC2)ccc1Nc1nc(N)c(Cl)c(Nc2ccccc2S(=O)(=O)C(C)C)n1 [HG-5-88-01] + COc1cc2c(Oc3ccc(NC(=O)C4(C(=O)Nc5ccc(F)cc5)CC4)cc3F)ccnc2cc1OCCCN1CCOCC1 [Foretinib] (partner 0.25 µM)", 0.275],
  ["Clc1ccc(Nc2nnc(Cc3ccncc3)c3ccccc23)cc1 [Vatalanib] + O=C(c1cc(Cc2n[nH]c(=O)c3ccccc23)ccc1F)N1CCN(C(=O)C2CC2)CC1 [Olaparib] (partner 8 µM)", 0.299]
]}

Query: Item under review: Clc1ccc(Nc2nnc(Cc3ccncc3)c3ccccc23)cc1 [Vatalanib] + CS(=O)(=O)CCNCc1ccc(-c2ccc3ncnc(Nc4ccc(OCc5cccc(F)c5)c(Cl)c4)c3c2)o1 [Lapatinib] (partner 2 µM) . Reported relative viability?
Reply: 0.611

Query: How about this compound: COc1cc(N2CCC(C(N)=O)CC2)ccc1Nc1nc(N)c(Cl)c(Nc2ccccc2S(=O)(=O)C(C)C)n1 [HG-5-88-01] + O=C(c1cc(Cc2n[nH]c(=O)c3ccccc23)ccc1F)N1CCN(C(=O)C2CC2)CC1 [Olaparib] (partner 8 µM)
Reply: 0.305

* * *

Test system: NCI-H838
PROTOCOL DESCRIPTION: relative viability (nuclei count vs DMSO), 5 days (fraction); higher = more cells survive
TEST PARAMETERS: first compound 8 µM
PARAMETER MEASURED: relative viability
// no unit string in output, number only

{"columns": ["COMPOUND", "SYSTEM TESTED", "relative viability"],
 "data": [
  ["CCCCCCCCCCCC1=C(O)C(=O)C=C(O)C1=O [Embelin] + O=C(CCCCCCC(=O)Nc1ccccc1)NO [Vorinostat] (partner 1 µM)", "NCI-H838", 0.704],
  ["CCCCCCCCCCCC1=C(O)C(=O)C=C(O)C1=O [Embelin] + Cc1nc(Nc2ncc(C(=O)Nc3c(C)cccc3Cl)s2)cc(N2CCN(CCO)CC2)n1 [Dasatinib] (partner 0.075 µM)", "NCI-H838", 0.224],
  ["CCCCCCCCCCCC1=C(O)C(=O)C=C(O)C1=O [Embelin] + Nc1nc2[nH]cc(CCc3ccc(C(=O)N[C@@H](CCC(=O)O)C(=O)O)cc3)c2c(=O)[nH]1 [Pemetrexed] (partner 0.2 µM)", "NCI-H838", 0.247]
]}

// below: relative viability requested for another compound
Query: Requested field: relative viability. Item: CCCCCCCCCCCC1=C(O)C(=O)C=C(O)C1=O [Embelin] + CC(C)C[C@H](NC(=O)[C@H](Cc1ccccc1)NC(=O)c1cnccn1)B(O)O [Bortezomib] (partner 0.002 µM)
Reply: 0.936

* * *

System: NCI-H520
PROTOCOL DESCRIPTION: relative viability (nuclei count vs DMSO), 5 days (fraction); higher = more cells survive
TEST PARAMETERS: first compound 0.1265 µM
Recorded relative viability values for a group of molecules are listed next.
Reply briefly: the number, and no unit.

{"columns": ["MOLECULE", "relative viability"],
 "data": [
  ["Clc1ccc(Nc2nnc(Cc3ccncc3)c3ccccc23)cc1 [Vatalanib] + Cc1cc(Nc2cc(N3CCN(C)CC3)nc(Sc3ccc(NC(=O)C4CC4)cc3)n2)n[nH]1 [Tozasertib] (partner 0.1 µM)", 0.385],
  ["Clc1ccc(Nc2nnc(Cc3ccncc3)c3ccccc23)cc1 [Vatalanib] + C[C@]1(O)C[C@@H](c2nc(-c3ccc4ccc(-c5ccccc5)nc4c3)c3c(N)nccn32)C1 [Linsitinib] (partner 1 µM)", 0.888],
  ["COc1cc(N2CCC(C(N)=O)CC2)ccc1Nc1nc(N)c(Cl)c(Nc2ccccc2S(=O)(=O)C(C)C)n1 [HG-5-88-01] + C[C@@H](Oc1cc(-c2cnn(C3CCNCC3)c2)cnc1N)c1c(Cl)ccc(F)c1Cl [Crizotinib] (partner 1 µM)", 0.704],
  ["Clc1ccc(Nc2nnc(Cc3ccncc3)c3ccccc23)cc1 [Vatalanib] + Cc1nc(NC(=O)N2CCC[C@H]2C(N)=O)sc1-c1ccnc(C(C)(C)C(F)(F)F)c1 [Alpelisib] (partner 2 µM)", 0.895],
  ["C[C@@H]1CN(CC(=O)Nc2ccc3c(c2)Cc2cccc(-c4cc(=O)cc(N5CCOCC5)o4)c2S3)C[C@H](C)O1 + C[C@@H](Oc1cc(-c2cnn(C3CCNCC3)c2)cnc1N)c1c(Cl)ccc(F)c1Cl [Crizotinib] (partner 1 µM)", 0.711],
  ["COc1cc(N2CCC(C(N)=O)CC2)ccc1Nc1nc(N)c(Cl)c(Nc2ccccc2S(=O)(=O)C(C)C)n1 [HG-5-88-01] + CC(C)C[C@H](NC(=O)[C@H](Cc1ccccc1)NC(=O)c1cnccn1)B(O)O [Bortezomib] (partner 0.002 µM)", 0.633],
  ["Clc1ccc(Nc2nnc(Cc3ccncc3)c3ccccc23)cc1 [Vatalanib] + COc1cc2c(Oc3ccc(NC(=O)C4(C(=O)Nc5ccc(F)cc5)CC4)cc3F)ccnc2cc1OCCCN1CCOCC1 [Foretinib] (partner 0.25 µM)", 0.662],
  ["C[C@@H]1CN(CC(=O)Nc2ccc3c(c2)Cc2cccc(-c4cc(=O)cc(N5CCOCC5)o4)c2S3)C[C@H](C)O1 + CC(=O)Nc1cccc(-n2c(=O)n(C3CC3)c(=O)c3c(Nc4ccc(I)cc4F)n(C)c(=O)c(C)c32)c1 [Trametinib] (partner 0.02 µM)", 0.629],
  ["COc1cc(N2CCC(C(N)=O)CC2)ccc1Nc1nc(N)c(Cl)c(Nc2ccccc2S(=O)(=O)C(C)C)n1 [HG-5-88-01] + CS(=O)(=O)CCNCc1ccc(-c2ccc3ncnc(Nc4ccc(OCc5cccc(F)c5)c(Cl)c4)c3c2)o1 [Lapatinib] (partner 2 µM)", 0.896],
  ["Clc1ccc(Nc2nnc(Cc3ccncc3)c3ccccc23)cc1 [Vatalanib] + CC(=O)Nc1cccc(-n2c(=O)n(C3CC3)c(=O)c3c(Nc4ccc(I)cc4F)n(C)c(=O)c(C)c32)c1 [Trametinib] (partner 0.02 µM)", 0.654]
]}

Query: What value of relative viability has been recorded for this entry: C[C@@H]1CN(CC(=O)Nc2ccc3c(c2)Cc2cccc(-c4cc(=O)cc(N5CCOCC5)o4)c2S3)C[C@H](C)O1 + Cc1cc(Nc2cc(N3CCN(C)CC3)nc(Sc3ccc(NC(=O)C4CC4)cc3)n2)n[nH]1 [Tozasertib] (partner 0.1 µM)
Reply: 0.454

Query: Now the molecule Clc1ccc(Nc2nnc(Cc3ccncc3)c3ccccc23)cc1 [Vatalanib] + Cc1nc(Nc2ncc(C(=O)Nc3c(C)cccc3Cl)s2)cc(N2CCN(CCO)CC2)n1 [Dasatinib] (partner 0.075 µM)
Reply: 0.202

Query: Follow-up entry: COc1cc(N2CCC(C(N)=O)CC2)ccc1Nc1nc(N)c(Cl)c(Nc2ccccc2S(=O)(=O)C(C)C)n1 [HG-5-88-01] + Nc1nc2[nH]cc(CCc3ccc(C(=O)N[C@@H](CCC(=O)O)C(=O)O)cc3)c2c(=O)[nH]1 [Pemetrexed] (partner 0.2 µM)
Reply: 0.592

Query: Request: Clc1ccc(Nc2nnc(Cc3ccncc3)c3ccccc23)cc1 [Vatalanib] + C[C@@H](Oc1cc(-c2cnn(C3CCNCC3)c2)cnc1N)c1c(Cl)ccc(F)c1Cl [Crizotinib] (partner 1 µM)
Reply: 0.849

Query: Repeat for the following molecule: COc1cc(N2CCC(C(N)=O)CC2)ccc1Nc1nc(N)c(Cl)c(Nc2ccccc2S(=O)(=O)C(C)C)n1 [HG-5-88-01] + COc1cc2c(Oc3ccc(NC(=O)C4(C(=O)Nc5ccc(F)cc5)CC4)cc3F)ccnc2cc1OCCCN1CCOCC1 [Foretinib] (partner 0.25 µM)
Reply: 0.942

Query: What do you get for COc1cc(N2CCC(C(N)=O)CC2)ccc1Nc1nc(N)c(Cl)c(Nc2ccccc2S(=O)(=O)C(C)C)n1 [HG-5-88-01] + Cc1cc(Nc2cc(N3CCN(C)CC3)nc(Sc3ccc(NC(=O)C4CC4)cc3)n2)n[nH]1 [Tozasertib] (partner 0.1 µM) ?
Reply: 0.433

Query: Same again, this time with Clc1ccc(Nc2nnc(Cc3ccncc3)c3ccccc23)cc1 [Vatalanib] + CC1(C)CCC(c2ccc(Cl)cc2)=C(CN2CCN(c3ccc(C(=O)NS(=O)(=O)c4ccc(N[C@H](CCN5CCOCC5)CSc5ccccc5)c(S(=O)(=O)C(F)(F)F)c4)cc3)CC2)C1 [Navitoclax] (partner 0.5 µM)
Reply: 1.02

Query: Next record, please: COc1cc(N2CCC(C(N)=O)CC2)ccc1Nc1nc(N)c(Cl)c(Nc2ccccc2S(=O)(=O)C(C)C)n1 [HG-5-88-01] + Cc1nc(Nc2ncc(C(=O)Nc3c(C)cccc3Cl)s2)cc(N2CCN(CCO)CC2)n1 [Dasatinib] (partner 0.075 µM)
Reply: 0.176
